# Assay comment: P-glycoprotein substrates identified in KB-8-5-11 adenocarcinoma cell line, qHTS therapeutic library screen (AID 1346987); note: nearly all actives have a fitted effect of over 65% in size
# Stated conditions: KB-8-5-11 (P-gp overexpressing) viability, CellTiter-Glo, 72 h; series mostly up to 44.5 µM
Records with an inconclusive call do not appear. Active and inactive are the calls of the source. Calls come from the whole dose curve; as a rule, active = well fitted inhibition curve with a large enough effect; inconclusive = small, poorly fitted or top-dose-only effect; inactive = flat fitted curve, though single readings scatter.
Hi! Could you answer with just one of these? active, inactive

Field: example entries. Status: answers known.
Compound	Answer label
COc1ccc2ccc(=O)oc2c1CC=C(C)C	inactive
CC=C1C2C=C(C)CC1(N)c1ccc(=O)[nH]c1C2 (stereo not drawn)	inactive
COc1cc([C@H]2Oc3cc([C@H]4Oc5cc(O)cc(O)c5C(=O)[C@H]4O)ccc3O[C@H]2CO)ccc1O	inactive
Cc1ccccc1C(C(=O)NC1CCCCC1)N(C(=O)CNc1ccc(C#N)cc1)c1cccc(F)c1 (stereo not drawn)	inactive
CCN(CC)CCCCNc1nc2cc(Cl)c(Cl)cc2nc1-c1ccc(-c2cccs2)s1	active

Problem: Tell me the assay call for C[C@@H](O)[C@H]1C(=O)N2C(C(=O)OCOC(=O)C(C)(C)C)=C(SC3CN(C4=NCCS4)C3)[C@H](C)[C@H]12 please.
Result: inactive

Problem: What was the test verdict on CN(C)c1ccccc1CN1CCCN(Cc2ccccc2N(C)C)C1c1ccncc1 ?
Result: inactive

Problem: State the result this test recorded for CN[C@@H]1[C@@H](O)[C@@H](O[C@@H]2[C@@H](O)[C@H](O[C@H]3O[C@H](CN)[C@@H](O)[C@H](O)[C@@H]3O)[C@@H](N)C[C@@H]2NC(=O)[C@@H](O)CN)OC[C@]1(C)O .
Result: inactive

====

# Assay comment: P-glycoprotein substrates identified in KB-3-1 adenocarcinoma cell line, qHTS therapeutic library screen (AID 1346986); note: nearly all actives have a fitted effect of over 60% in size;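 note: potency is the fitted concentration of half-maximal effect; potency is for cytotoxicity meaning loss of cell viability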
# Stated conditions: KB-3-1 parental cells viability, CellTiter-Glo, 72 h; series mostly up to 44.5 µM
Inconclusive results are not listed. Active and inactive are the calls of the source. Calls follow the shape of the dose curve; as a rule, active = well fitted inhibition curve with a large enough effect; inconclusive = small, poorly fitted or top-dose-only effect; inactive = no such curve, though single readings can be large or run the other way.
Outcome measure: Potency

Worked set:
In [3]: df
Out[3]:
                                smiles_code  outcome_measure        test_result
0  CC(C)CN(C[C@@H](O)[C@H](Cc1ccccc1)NC(=O)O[C@H]1CO[C@H]2OCC[C@H]21)S(=O)(=O)c1ccc(N)cc1          Potency           inactive
1        CCC=CC[C@H]1C(=O)CC[C@@H]1CC(=O)OC          Potency           inactive
2  COc1ccc(-c2cc3nccn3c(Nc3ncccc3C(N)=O)n2)cc1OC          Potency   6.51 µM (active)
3  CC(C)CN(C[C@H](O)[C@H](Cc1ccccc1)NC(=O)O[C@H]1CCOC1)S(=O)(=O)c1ccc(N)cc1          Potency           inactive
4  CCC(=O)N1CCN(c2ccc(-n3c(=O)ccc4cnc5ccc(-c6cnc7ccccc7c6)cc5c43)cc2C(F)(F)F)CC1          Potency  0.075 µM (active)

Problem: Consider the molecule CCCCC[C@H](O)C=C[C@H]1[C@H](O)CC(=O)[C@H]1CC=CCCCC(=O)O and give its measured Potency.
Result: inactive

Problem: Fill in the blank: the reported Potency of CCN1C[C@H](C)n2c(c(O)c3c(=O)n(Cc4ccc(F)c(Cl)c4)nc(C(=O)NC)c32)C1=O is ____.
Result: inactive

Problem: Recorded Potency of CC(=O)O[C@]1(C(C)=O)CC[C@H]2[C@@H]3C=C(Cl)C4=CC(=O)[C@@H]5C[C@H]5[C@]4(C)[C@@H]3CC[C@@]21C , please.
Result: inactive

====

# Tested on: SKOV3
# Assay comment: Primary qHTS to identify gynecologic anti-cancer compounds using libraries of approved drugs and bioactive compounds (AID 1345084); note: nearly all actives have a fitted effect of over 55% in size; note: potency is the fitted concentration of half-maximal effect
# Stated conditions: Gynecologic cancer cell panel viability, ATPlite luminescence, 48 h; series mostly up to 57.5 µM
Inconclusive results are not listed. Active and inactive are the calls of the source. The call rests on the fitted dose curve; in most records, active means well fitted cell-killing curve with a large enough effect; inconclusive means small, poorly fitted or top-dose-only effect, or effect the other way; inactive means flat fitted curve, though single readings scatter.
Outcome measure: Potency

Use these answered entries as a reference point.
>>> df
                                   compound  test_result
0  NC(=O)c1ccc(N(C(N)=O)c2c(F)cccc2F)nc1-c1ccc(F)cc1F     inactive
1  Nc1[nH]nc2nnc(-c3c(-c4ccccc4)nn4ccccc34)cc12     inactive
2  Cc1nc2c([nH]1)CCN(C(=O)c1ccc(NC(=O)c3ccccc3-c3ccccc3)cc1)c1ccccc1-2     inactive
3  O[C@@H](COc1cccc2ncccc12)CN1CCN(C2c3ccccc3[C@@H]3[C@H](c4ccccc42)C3(F)F)CC1 (stereo partly drawn)     inactive

Problem: Name the recorded Potency for O=C1C(c2c(O)[nH]c3ccccc23)=Nc2ccccc21 .
Result: inactive

Problem: Which Potency is listed for COc1nccc(-c2c(-c3ccc(F)cc3)ncn2C2CCNCC2)n1 ?
Result: inactive

Problem: What measured Potency goes with CN1CCC(COc2cnc(-c3cccc(Cn4nc(-c5cccc(C#N)c5)ccc4=O)c3)nc2)CC1 ?
Result: inactive

Problem: Give its Potency value. Item: CCN(CCO)CCCOc1ccc2c(Nc3cc(CC(=O)Nc4cccc(F)c4)[nH]n3)ncnc2c1
Result: inactive

Problem: For the compound Cc1c(C(=O)Nc2ccc(N3C[C@@H](C)O[C@@H](C)C3)nc2)cccc1-c1ccc(OC(F)(F)F)cc1 , what Potency is on record?
Result: inactive

Problem: # get_value(readout='Potency', item= CNC(=O)c1c(-c2ccc(F)cc2)oc2cc(N(CCO)S(C)(=O)=O)c(C3CC3)cc12 )
Result: inactive

Problem: Tell me the measured Potency of O=C(O)CCNc1cc(N2CCc3ccccc3CC2)nc(-c2ccccn2)n1 , please.
Result: inactive

Problem: Sample CC1(C)CC(=O)c2c(C(F)(F)F)nn(-c3ccc(C(N)=O)c(NC4CCC(O)CC4)c3)c2C1 (stereo not drawn) — what was its Potency?
Result: 398 nM (active)

Problem: Field request: Potency | item: COc1cc(Nc2nc3ccccc3nc2NS(=O)(=O)c2ccc(NC(=O)c3ccc(C)c(OC)c3)cc2)cc(OC)c1
Result: inactive

====

# Assay comment: Quantitative High-Throughput drug screen in 47 multiple myeloma cell lines against the NCATS MIPE library collection: Karpas25_ECACC cell viability assay (AID 1918968; note: nearly all actives have a fitted effect of over 35% in size; note: potency is the fitted concentration of half-maximal effect)
# Stated conditions: Karpas25 myeloma viability, CellTiter-Glo ATP, 48 h; series mostly up to 45.8 µM
Records with an inconclusive call do not appear. Active and inactive are the calls of the source. Calls follow the shape of the dose curve; as a rule, active = well fitted cell-killing curve with a large enough effect; inconclusive = small, poorly fitted or top-dose-only effect, or effect the other way; inactive = no such curve, though single readings can be large or run the other way.
Outcome measure: Potency

Some molecules with recorded Potency:
Molecule	Potency
CCc1cccc(CC)c1NC(=O)N1Cc2[nH]nc(NC(=O)c3ccc(N4CCN(C)CC4)cc3)c2C1	13.2 µM (active)
CC[C@H](NC(=O)[C@H](C)NC)C(=O)N1C[C@@H](O)C[C@H]1Cc1c(-c2[nH]c3cc(F)ccc3c2C[C@H]2C[C@H](O)CN2C(=O)[C@H](CC)NC(=O)[C@H](C)NC)[nH]c2cc(F)ccc12	16.6 µM (active)
CCC(=C(c1ccc(O)cc1)c1ccc(OCCNC)cc1)c1ccccc1	18.7 µM (active)
CO[C@H]1/C=C\O[C@@]2(C)Oc3c(C)c(O)c4c(O)c(c(C=NN5CCN(C6CCCC6)CC5)c(O)c4c3C2=O)NC(=O)C(C)=CC=C[C@H](C)[C@H](O)[C@@H](C)[C@@H](O)[C@@H](C)[C@H](OC(C)=O)[C@H]1C	0.0235 µM (active)
C[C@H]1COC2=C1C(=O)C(=O)c1c2ccc2c1CCCC2(C)C	4.69 µM (active)
COc1ccc2ccc(=O)oc2c1CC=C(C)C	20.9 µM (active)
OC[C@H]1O[C@@H](O[C@H]2[C@@H](O)[C@@](O)(CO)O[C@@H]2CO)[C@H](O)[C@@H](O)[C@@H]1O	inactive
O=C1CN2Cc3c(ccc(Cl)c3Cl)N=C2N1	26.4 µM (active)
O=C(O)C1=CO[C@@H](O[C@@H]2O[C@H](CO)[C@H](O)[C@H](O)[C@H]2O)[C@@H]2C(CO)=CC[C@H]12	inactive
CC(C)Oc1cc(Nc2nc(N[C@@H](C)c3ccc(F)cn3)ncc2Cl)[nH]n1	10.5 µM (active)

Then this molecule:
Problem: Bench note: what Potency did O=C(C=Cc1ccc(O)cc1)c1ccc(O)cc1O show?
Result: 23.5 µM (active)

====

# Assay comment: qHTS Screen of the MIPE 4.0 Collection Against Ewings Sarcoma (EW8) (AID 1259255); note: nearly all actives have a fitted effect of over 35% in size
# Stated conditions: EW8 Ewing sarcoma viability, CellTiter-Glo, 48 h; series mostly up to 45.8 µM
Results filed as inconclusive are left out. Active and inactive are the calls of the source. The call rests on the fitted dose curve; in most records, active means well fitted inhibition curve with a large enough effect; inconclusive means small, poorly fitted or top-dose-only effect; inactive means no such curve, though single readings can be large or run the other way.
// one of Y = active, N = inactive, no free text

Solved entries:
>>> print(df.to_string())
                                   molecule  answer_label
0  CN1N=C(N)c2cn([C@@H]3O[C@H](COP(=O)(O)O)[C@@H](O)[C@@H]3O)c3ncnc1c23             Y
1  CN1c2ccccc2C(=O)N2CCc3c([nH]c4ccccc34)C21 (stereo not given)             N
2  CN1CCN(c2ncc(-c3cc(Cl)cc(Cl)c3Cl)c(N)n2)CC1             N

Problem: Please share the test call associated with CC(NCCc1ccc(O)cc1)C(O)c1ccc(O)cc1 (stereo not given) .
Result: N

Problem: Recorded call for COc1nccc(-c2c(-c3ccc(F)cc3)ncn2C2CCNCC2)n1 ?
Result: Y
